Hello, the source for this data is patent US20040170955A1, in case you need it.

# MEASURED TARGET: T1, GST-β3cyto (GST fusion protein of the β3 integrin cytoplasmic domain) (UniProt P05106 742-788)
# T1 construct: domain: cytoplasmic domain; Recombinant GST fusion coated on microtiter wells; also called β3-GST; β3 cytoplasmic domain fusion protein; not shown: glutathione S-transferase (GST) fusion partner
# T1 sequence (P05106 742-788): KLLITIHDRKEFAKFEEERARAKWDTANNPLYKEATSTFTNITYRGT
# TEST METHOD NOTES: phage binding, colonies from β3-GST wells / GST wells
Ends that are not written are not given here.
ATTRIBUTE MEASURED: β3/GST Ratio
Express your answer as a number followed by its unit.

BINDER: CARLEVLLPC (cysteine pairing not given here; also: displayed on phage, whole phage tested) [phage displaying CARLEVLLPC (SEQ ID NO:94)]
REPORTED MEASUREMENT: 2.8 ratio
--
BINDER: CNLSSEQC (cysteine pairing not given here; also: displayed on phage, whole phage tested) [phage displaying CNLSSEQC (SEQ ID NO:103)]
REPORTED MEASUREMENT: 2.7 ratio
--
BINDER: CEQRQTQEGC (cysteine pairing not given here; also: displayed on phage, whole phage tested) [phage displaying CEQRQTQEGC (SEQ ID NO:93)]
REPORTED MEASUREMENT: 4.3 ratio
--
BINDER: SDNRYIGSW (whole phage tested) [phage displaying SDNRYIGSW (SEQ ID NO:97)]
REPORTED MEASUREMENT: 3.3 ratio
--
BINDER: KVSWYLDNG (whole phage tested) [phage displaying KVSWYLDNG (SEQ ID NO:99)]
REPORTED MEASUREMENT: 2.1 ratio
--
BINDER: SDWYYPWSW (whole phage tested; Selected on β3) [phage displaying SDWYYPWSW (SEQ ID NO:100)]
REPORTED MEASUREMENT: 2.1 ratio
--
BINDER: YEWWYWSWA (whole phage tested) [phage displaying YEWWYWSWA (SEQ ID NO:98)]
REPORTED MEASUREMENT: 2.2 ratio
--
BINDER: CFQNRC (cysteine pairing not given here; also: displayed on phage, whole phage tested) [phage displaying CFQNRC (SEQ ID NO:102)]
REPORTED MEASUREMENT: 3.1 ratio
--
BINDER: YDWWYPWSW (whole phage tested) [phage displaying YDWWYPWSW (SEQ ID NO:95)]
REPORTED MEASUREMENT: 5.6 ratio
--
BINDER: GLDTYRGSP (whole phage tested) [phage displaying GLDTYRGSP (SEQ ID NO:96)]
REPORTED MEASUREMENT: 4.1 ratio

Okay, next one:
Give reported β3/GST Ratio value for CLRQSYSYNC (cysteine pairing not given here; also: displayed on phage, whole phage tested) [phage displaying CLRQSYSYNC (SEQ ID NO:104)]
2.4 ratio
